Biological target: T1, human TSH receptor (full length), coated on tubes (human, UniProt P16473 22-764)
T1 construct: TSHR coated tubes as described in WO2004/050708A2; The receptor is full length and held on plastic tubes through a mouse MAb to the TSHR; also called thyroid stimulating hormone receptor
Assay: inhibition of 125I-K1-70 Fab (competitor) binding to TSHR coated tubes; 100 µg/mL in assay buffer

binder: K1-70 Fab (Fab, V domains shown) VH: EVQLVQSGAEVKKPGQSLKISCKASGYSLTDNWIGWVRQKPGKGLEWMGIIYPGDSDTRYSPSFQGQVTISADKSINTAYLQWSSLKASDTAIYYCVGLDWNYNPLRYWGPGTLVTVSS VL: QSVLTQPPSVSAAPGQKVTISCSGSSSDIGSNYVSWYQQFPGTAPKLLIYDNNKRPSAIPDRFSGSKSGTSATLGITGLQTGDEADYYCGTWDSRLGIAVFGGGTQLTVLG
Inhibition of binding (%): 96.7

binder: K1-18 Fab (Fab, V domains shown) VH: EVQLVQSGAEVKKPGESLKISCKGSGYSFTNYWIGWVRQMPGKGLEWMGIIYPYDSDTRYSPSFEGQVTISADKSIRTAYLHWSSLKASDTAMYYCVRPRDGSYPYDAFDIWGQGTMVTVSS VL: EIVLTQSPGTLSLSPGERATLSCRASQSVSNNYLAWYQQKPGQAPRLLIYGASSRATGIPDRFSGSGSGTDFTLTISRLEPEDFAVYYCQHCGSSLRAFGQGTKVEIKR
Inhibition of binding (%): 86.4

binder: K1-70 IgG (antibody, V domains shown, Human IgG1 lambda purified from hetero-hybridoma supernatant; also called human monoclonal autoantibody to the TSHR with TSH antagonist activity) VH: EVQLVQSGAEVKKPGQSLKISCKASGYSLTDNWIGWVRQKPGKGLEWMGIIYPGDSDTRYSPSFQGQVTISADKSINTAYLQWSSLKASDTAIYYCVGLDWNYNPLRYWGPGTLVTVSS VL: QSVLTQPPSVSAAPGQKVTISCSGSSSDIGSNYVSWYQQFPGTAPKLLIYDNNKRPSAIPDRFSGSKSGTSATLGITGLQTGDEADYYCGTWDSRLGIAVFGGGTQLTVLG
Inhibition of binding (%): 97.7

binder: K1-18 IgG (antibody, V domains shown, Human IgG1 kappa purified from hetero-hybridoma supernatant; also called human monoclonal autoantibody to the TSHR with TSH agonist activity) VH: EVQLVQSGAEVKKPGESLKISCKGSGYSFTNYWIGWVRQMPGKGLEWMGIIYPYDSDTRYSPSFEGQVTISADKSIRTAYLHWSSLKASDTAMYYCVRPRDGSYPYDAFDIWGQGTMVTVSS VL: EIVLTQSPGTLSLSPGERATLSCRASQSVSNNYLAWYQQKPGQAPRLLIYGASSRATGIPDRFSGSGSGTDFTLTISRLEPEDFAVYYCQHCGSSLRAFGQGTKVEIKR
Inhibition of binding (%): 95.3
